Recorded log10 IC50 by entry
- Test system: KOPN8 cell line
- assay.name: cells
- Assay type: cell-based, human
- assay.context: Homo sapiens, KOPN-8, 96 h
For clarity, the numbers are log10 values of IC50 expressed in µM.

In the examples that follow, each entry is paired with its recorded log10 IC50.
Cc1nc(Nc2ncc(C(=O)Nc3c(C)cccc3Cl)s2)cc(N2CCN(CCO)CC2)n1 :: -2.13
CC(C)Cn1cnc2c(N)nc3ccccc3c21 :: 0.46
CCc1c2c(nc3ccc(OC(=O)N4CCC(N5CCCCC5)CC4)cc13)-c1cc3c(c(=O)n1C2)COC(=O)[C@]3(O)CC :: 0.23
C=C1C[C@@H]2[C@H](CC[C@]3(C)C(=O)CC[C@@H]23)[C@@]2(C)C=CC(=O)C=C12 :: 0.95
Nc1ncn([C@@H]2O[C@H](CO)[C@@H](O)[C@H]2O)c(=O)n1 :: -0.08

What the record says about C[C@]12CC[C@@H]3c4ccc(O)cc4C[C@@H](CCCCCCCCC[S+]([O-])CCCC(F)(F)C(F)(F)F)[C@H]3[C@@H]1CC[C@@H]2O (some centres unmarked) : log10 IC50 is 0.88

Measured log10 IC50 of `CCN(CC)CCNC(=O)c1c(C)[nH]c(/C=C2\C(=O)Nc3ccc(F)cc32)c1C` : 0.52
